These entries and their values trace back to patent US8290713.

Here the recorded % decrease in rate of aggregation is given for each entry.
- tgt: α-synuclein (UniProt P37840 1-140)
- assay.notes: cell-based or functional assay; further: test concentration or dose not given here
Non-standard residues stand in square brackets, D forms with d.

[
  {
    "binder": "Ac-[dH][dH][dT][dT][dV][dY]-NH2 (SMILES CC(=O)N[C@H](Cc1c[nH]cn1)C(=O)N[C@H](Cc1c[nH]cn1)C(=O)N[C@@H](C(=O)N[C@@H](C(=O)N[C@@H](C(=O)N[C@H](Cc1ccc(O)cc1)C(N)=O)C(C)C)[C@H](C)O)[C@H](C)O) [ZP-0194]",
    "% decrease in rate of aggregation / %": 7.7
  },
  {
    "binder": "Ac-[dH][dH][dT][dL][dV][dV]-NH2 (SMILES CC(=O)N[C@H](Cc1c[nH]cn1)C(=O)N[C@H](Cc1c[nH]cn1)C(=O)N[C@@H](C(=O)N[C@H](CC(C)C)C(=O)N[C@@H](C(=O)N[C@@H](C(N)=O)C(C)C)C(C)C)[C@H](C)O) [ZP-0186]",
    "% decrease in rate of aggregation / %": 29.7
  },
  {
    "binder": "H-[dQ][dY][dT][dV][dL][dI]-NH2 (SMILES CC[C@@H](C)[C@@H](NC(=O)[C@@H](CC(C)C)NC(=O)[C@H](NC(=O)[C@H](NC(=O)[C@@H](Cc1ccc(O)cc1)NC(=O)[C@H](N)CCC(N)=O)[C@H](C)O)C(C)C)C(N)=O) [ZP-0221]",
    "% decrease in rate of aggregation / %": 22.8
  },
  {
    "binder": "Ac-[dQ][dY][dS][dV][dP][dI]-NH2 (SMILES CC[C@@H](C)[C@@H](NC(=O)[C@H]1CCCN1C(=O)[C@H](NC(=O)[C@@H](CO)NC(=O)[C@@H](Cc1ccc(O)cc1)NC(=O)[C@@H](CCC(N)=O)NC(C)=O)C(C)C)C(N)=O) [ZP-0204]",
    "% decrease in rate of aggregation / %": -5.6
  },
  {
    "binder": "Ac-[dH][dH][dV][dL][dV][dA]-NH2 (SMILES CC(=O)N[C@H](Cc1c[nH]cn1)C(=O)N[C@H](Cc1c[nH]cn1)C(=O)N[C@@H](C(=O)N[C@H](CC(C)C)C(=O)N[C@@H](C(=O)N[C@H](C)C(N)=O)C(C)C)C(C)C) [ZP-0160]",
    "% decrease in rate of aggregation / %": 10.5
  },
  {
    "binder": "Ac-[dE][dK][dY][dS][dV][dL][dI]-NH2 (SMILES CC[C@@H](C)[C@@H](NC(=O)[C@@H](CC(C)C)NC(=O)[C@H](NC(=O)[C@@H](CO)NC(=O)[C@@H](Cc1ccc(O)cc1)NC(=O)[C@@H](CCCCN)NC(=O)[C@@H](CCC(=O)O)NC(C)=O)C(C)C)C(N)=O) [ZP-0213]",
    "% decrease in rate of aggregation / %": 12.9
  }
]
